- Target or system: 3-hydroxy-3-methylglutaryl-coenzyme A reductase (Sus scrofa)
- Sequence (Q1W675 whole entry): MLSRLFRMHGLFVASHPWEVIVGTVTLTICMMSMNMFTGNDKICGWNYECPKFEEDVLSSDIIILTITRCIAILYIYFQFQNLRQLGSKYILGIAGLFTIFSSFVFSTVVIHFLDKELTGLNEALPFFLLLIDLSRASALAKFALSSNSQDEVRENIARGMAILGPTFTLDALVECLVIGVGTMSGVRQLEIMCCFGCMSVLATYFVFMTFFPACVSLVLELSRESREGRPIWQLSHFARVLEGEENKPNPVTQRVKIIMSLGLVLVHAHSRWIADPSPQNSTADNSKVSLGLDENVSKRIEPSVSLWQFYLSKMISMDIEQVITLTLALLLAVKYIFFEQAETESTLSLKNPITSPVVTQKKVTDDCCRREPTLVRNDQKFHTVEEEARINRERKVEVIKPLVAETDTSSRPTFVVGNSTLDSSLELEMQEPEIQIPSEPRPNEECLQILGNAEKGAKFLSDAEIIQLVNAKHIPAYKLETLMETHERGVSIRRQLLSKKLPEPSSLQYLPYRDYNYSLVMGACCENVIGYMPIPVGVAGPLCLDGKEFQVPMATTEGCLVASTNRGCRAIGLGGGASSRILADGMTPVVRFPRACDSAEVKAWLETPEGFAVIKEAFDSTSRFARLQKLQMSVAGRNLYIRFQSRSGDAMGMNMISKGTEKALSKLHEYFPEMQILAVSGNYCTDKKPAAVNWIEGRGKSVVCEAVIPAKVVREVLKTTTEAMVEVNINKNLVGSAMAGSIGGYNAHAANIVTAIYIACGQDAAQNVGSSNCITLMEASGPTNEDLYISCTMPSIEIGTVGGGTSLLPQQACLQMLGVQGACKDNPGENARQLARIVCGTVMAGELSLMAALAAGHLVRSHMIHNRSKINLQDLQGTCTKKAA
Endpoint name: IC50 (µM)
Enter your answer as a number in µM; do not include the unit.

Form: molecule = C/C(=C/CC[C@@H](C)[C@H]1CC[C@@]2(C)C3=C(CC[C@]12C)[C@@]1(C)CCC(=O)C(C)(C)[C@@H]1CC3=O)C(=O)O (stereo in doubt; 21) [GANODERIC ACID DM] ; IC50 = 56.1

Form: molecule = `CC(=O)O[C@H]1C(=O)C2=C(C(=O)C[C@H]3[C@](C)(CO)C(=O)CC[C@]23C)[C@]2(C)C(=O)C[C@H]([C@H](C)CC/C=C(\C)C(=O)O)[C@@]12C` ; IC50 = 20.5

Form: molecule = `CC(=O)O[C@H]1C(=O)C2=C([C@@H](O)C[C@H]3[C@](C)(CO)C(=O)CC[C@]23C)[C@]2(C)CC[C@H]([C@H](C)CC/C=C(\C)C(=O)O)[C@@]12C` ; IC50 = 26.6
